# tested_target: Voltage-gated inwardly rectifying potassium channel KCNH2 (Homo sapiens)
# experiment_summary: hERG protection against dofetilide inhibition, confirmation, cell-based, thallium flux, duplicate retest, dofetilide IC70 (AID 1835)
# particulars: hERG cell line, FluxOR thallium flux, dofetilide-blocked; at 10 µM
About 750 (31%) of roughly 2,400 compounds were called active.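 How the source made its calls: active means median signal gain over dofetilide-blocked control wells reaching their mean plus 3 SD, so readout 1 at least 0; inactive means the rest.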 Some of the results follow.
Labels: active, inactive

molecule	group
O=[N+]([O-])c1ccc(Cl)c(/C=N/Nc2nc(N3CCOCC3)nc(N3CCOCC3)n2)c1	inactive
CC(C)(C)SCCNC(=O)CN1C(=O)c2ccccc2S1(=O)=O	inactive
COc1cccc(-c2nnc(Nc3nc4c(F)cccc4s3)o2)c1	active
C=CCn1c(SCc2ccc(C(=O)O)cc2)nc2sc(C)c(C)c2c1=O	active
Fc1cccc2sc(Nc3nnc(-c4ccco4)o3)nc12	active
O=C(Cc1ccc(Cl)cc1)Nc1cccc(-c2nnc(-c3ccco3)o2)c1	inactive
CC(=O)Nc1nc2c(F)cccc2s1	inactive
Cc1ccc(C(=C2C3C=CC2C2C(=O)NC(=O)C32)c2ccc(C)cc2)cc1 (stereo unspecified)	inactive
Nc1cccc(Oc2cnccn2)c1	inactive
CC1=C(C)CS(=O)N(c2ccc(S(N)(=O)=O)cc2)C1 (stereo unspecified)	inactive
O=C(c1ccccc1)c1nccn1-c1ccc(Cl)nn1	inactive

====

# tested_target: Voltage-gated inwardly rectifying potassium channel KCNH2 (Homo sapiens)
# experiment_summary: hERG protection against dofetilide inhibition, confirmation, cell-based, thallium flux, duplicate retest, dofetilide IC70 (AID 1835)
# particulars: hERG cell line, FluxOR thallium flux, dofetilide-blocked; at 10 µM; active compounds read high
Among all 2,400 compounds or so, about 750 (31%) were called active. The list shows a part of the results.
property_label: activity increase over dofetilide control, less the hit threshold (%)

compound_structure	observed_result
Cc1ccc(N=Nc2ccc(O)c3ncccc23)cc1	40
CCOc1ccc(OCC(=O)OCC(=O)N2CCN(C(=O)c3ccco3)CC2)cc1	-2
CCOc1ccc(N=Nc2ccc(O)c3ncccc23)cc1	0
O=C(OCCNc1ccc(C(F)(F)F)cc1[N+](=O)[O-])c1cc2ccccc2oc1=O	-10
CCc1c(C)sc(NC(=O)CN2CCN(C(=O)c3ccco3)CC2)c1C(=O)OC	1
CCOC(=O)c1c(NC(=O)CN2CCN(C(=O)c3ccco3)CC2)sc2c1CCCC2	7

====

# tested_target: Voltage-gated inwardly rectifying potassium channel KCNH2 (Homo sapiens) (UniProt Q12809)
# Sequence (Q12809 whole entry, looked up): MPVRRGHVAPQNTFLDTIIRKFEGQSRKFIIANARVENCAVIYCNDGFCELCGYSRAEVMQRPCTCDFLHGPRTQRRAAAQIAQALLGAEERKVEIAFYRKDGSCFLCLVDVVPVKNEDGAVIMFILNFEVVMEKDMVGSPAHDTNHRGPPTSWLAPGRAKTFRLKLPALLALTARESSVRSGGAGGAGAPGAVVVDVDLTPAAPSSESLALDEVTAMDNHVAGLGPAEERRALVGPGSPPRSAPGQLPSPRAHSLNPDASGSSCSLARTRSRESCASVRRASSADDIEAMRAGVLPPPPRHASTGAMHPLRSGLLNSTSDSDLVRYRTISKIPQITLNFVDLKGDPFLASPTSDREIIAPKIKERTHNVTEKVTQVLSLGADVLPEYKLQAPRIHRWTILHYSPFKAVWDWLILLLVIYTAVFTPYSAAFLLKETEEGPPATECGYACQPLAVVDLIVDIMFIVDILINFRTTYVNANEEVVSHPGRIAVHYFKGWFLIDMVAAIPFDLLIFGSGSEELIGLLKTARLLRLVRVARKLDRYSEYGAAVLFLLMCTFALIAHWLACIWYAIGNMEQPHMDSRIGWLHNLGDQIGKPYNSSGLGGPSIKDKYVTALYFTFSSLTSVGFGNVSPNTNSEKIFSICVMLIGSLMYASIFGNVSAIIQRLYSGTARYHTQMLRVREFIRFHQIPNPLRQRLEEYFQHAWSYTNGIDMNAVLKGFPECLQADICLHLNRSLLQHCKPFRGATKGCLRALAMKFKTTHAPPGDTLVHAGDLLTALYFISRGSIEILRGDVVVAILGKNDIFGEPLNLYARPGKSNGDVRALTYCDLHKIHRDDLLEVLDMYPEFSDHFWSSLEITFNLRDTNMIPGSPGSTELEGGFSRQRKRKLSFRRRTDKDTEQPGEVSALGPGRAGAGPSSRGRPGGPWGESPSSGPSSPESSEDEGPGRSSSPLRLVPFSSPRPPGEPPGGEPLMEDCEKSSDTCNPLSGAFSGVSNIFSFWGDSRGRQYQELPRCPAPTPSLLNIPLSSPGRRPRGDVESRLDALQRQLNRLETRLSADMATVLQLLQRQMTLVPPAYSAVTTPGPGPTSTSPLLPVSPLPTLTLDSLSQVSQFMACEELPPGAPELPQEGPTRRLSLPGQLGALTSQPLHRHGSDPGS
# experiment_summary: hERG protection against dofetilide inhibition, confirmation, cell-based, thallium flux, duplicate retest, dofetilide IC70 (AID 1835)
# particulars: hERG cell line, FluxOR thallium flux, dofetilide-blocked; at 10 µM; active compounds read high
About 750 (31%) of roughly 2,400 compounds were called active. This is one part of the list.
property_label: activity increase over dofetilide control, less the hit threshold (%)

compound	tested_target	output_unit	observed_result
COc1cccc2sc(Nc3nnc(-c4ccccc4Cl)o3)nc12	Voltage-gated inwardly rectifying potassium channel KCNH2 (Homo sapiens) (UniProt Q12809)	%	16
Cc1ccc(S(=O)(=O)N(C)C)cc1NC(=S)NC(C)CCCC(C)C (stereo not drawn)	Voltage-gated inwardly rectifying potassium channel KCNH2 (Homo sapiens) (UniProt Q12809)	%	-30
Cc1ccc(C(C(=O)NC(C)(C)C)N(Cc2cccnc2)C(=O)C(=O)NC2CCCCC2)o1 (stereo not drawn)	Voltage-gated inwardly rectifying potassium channel KCNH2 (Homo sapiens) (UniProt Q12809)	%	0
CN(C)CCNc1ncnc2c1sc1nc(N3CCCC3)c3c(c12)CC(C)(C)OC3	Voltage-gated inwardly rectifying potassium channel KCNH2 (Homo sapiens) (UniProt Q12809)	%	-10
COc1ccc(S(=O)(=O)N(CCc2ccccc2)CC(=O)O)cc1	Voltage-gated inwardly rectifying potassium channel KCNH2 (Homo sapiens) (UniProt Q12809)	%	-12
Cc1ccc(-n2c(=O)c3cc4c(=O)n(-c5ccc(C)c(C)c5)c(=O)c4c(C(=O)c4ccc(C(=O)O)cc4)c3c2=O)cc1C	Voltage-gated inwardly rectifying potassium channel KCNH2 (Homo sapiens) (UniProt Q12809)	%	-8
COc1ccc(S(=O)(=O)c2snnc2C)cc1	Voltage-gated inwardly rectifying potassium channel KCNH2 (Homo sapiens) (UniProt Q12809)	%	-2
CCCCOc1ccc(CC(=O)NCC(=O)O)cc1	Voltage-gated inwardly rectifying potassium channel KCNH2 (Homo sapiens) (UniProt Q12809)	%	-17
COc1cccc2sc(Nc3nnc(-c4ccc(F)cc4)o3)nc12	Voltage-gated inwardly rectifying potassium channel KCNH2 (Homo sapiens) (UniProt Q12809)	%	83
COc1cccc2sc(Nc3nnc(-c4cccs4)o3)nc12	Voltage-gated inwardly rectifying potassium channel KCNH2 (Homo sapiens) (UniProt Q12809)	%	52
Cc1ccccc1Cn1nc(C)c(NC(=O)c2ccccc2)c1C	Voltage-gated inwardly rectifying potassium channel KCNH2 (Homo sapiens) (UniProt Q12809)	%	25
CN(Cc1ccsc1)C(=O)CCc1nnc(Cc2c[nH]c3ccccc23)o1	Voltage-gated inwardly rectifying potassium channel KCNH2 (Homo sapiens) (UniProt Q12809)	%	-8
Cc1cc2[nH]c(=O)c(=O)[nH]c2cc1S(=O)(=O)N1CCN(c2cccc(C)c2C)CC1	Voltage-gated inwardly rectifying potassium channel KCNH2 (Homo sapiens) (UniProt Q12809)	%	-5
CC1=C(C#N)C(Nc2cc(C)ccn2)(C(F)(F)F)C(=O)N1 (stereo not drawn)	Voltage-gated inwardly rectifying potassium channel KCNH2 (Homo sapiens) (UniProt Q12809)	%	-10
Cc1cc(C)cc(NC(=O)N2CCCC2C(=O)Nc2ccc(-n3cnnn3)c(C)c2)c1 (stereo not drawn)	Voltage-gated inwardly rectifying potassium channel KCNH2 (Homo sapiens) (UniProt Q12809)	%	-28
O=C(NC1CCCC1)c1ccc(Br)o1	Voltage-gated inwardly rectifying potassium channel KCNH2 (Homo sapiens) (UniProt Q12809)	%	-5
CCCOc1ccc(OC(=O)c2ccc(Br)o2)cc1	Voltage-gated inwardly rectifying potassium channel KCNH2 (Homo sapiens) (UniProt Q12809)	%	14
COc1ccc2[nH]c3c(=O)n(CCN4CCOCC4)cnc3c2c1	Voltage-gated inwardly rectifying potassium channel KCNH2 (Homo sapiens) (UniProt Q12809)	%	-14
c1cnc2c(Oc3ncnc4sccc34)cccc2c1	Voltage-gated inwardly rectifying potassium channel KCNH2 (Homo sapiens) (UniProt Q12809)	%	-11
OC(CNCC(c1ccc(Cl)cc1Cl)c1c[nH]c2ccccc12)c1ccccc1 (stereo not drawn)	Voltage-gated inwardly rectifying potassium channel KCNH2 (Homo sapiens) (UniProt Q12809)	%	-48
COc1ccccc1Nc1nnc(SCC(=O)Nc2nc(-c3ccc(F)cc3)cs2)s1	Voltage-gated inwardly rectifying potassium channel KCNH2 (Homo sapiens) (UniProt Q12809)	%	-24
Cc1ccc(N2CCN(C(=O)N3CCCC3)CC2)cc1C	Voltage-gated inwardly rectifying potassium channel KCNH2 (Homo sapiens) (UniProt Q12809)	%	5
CCOc1c(OC)ccc2c3c(c(=O)oc12)CCCC3	Voltage-gated inwardly rectifying potassium channel KCNH2 (Homo sapiens) (UniProt Q12809)	%	-20

====

# tested_target: Voltage-gated inwardly rectifying potassium channel KCNH2 (Homo sapiens)
# experiment_summary: hERG protection against dofetilide inhibition, confirmation, cell-based, thallium flux, duplicate retest, dofetilide IC70 (AID 1835)
# particulars: hERG cell line, FluxOR thallium flux, dofetilide-blocked; at 10 µM; active compounds read high
The whole screen tested about 2,400 compounds, of which about 750 (31%) were called active. Some of the results follow.
property_label: activity increase over dofetilide control, less the hit threshold (%)

compound	observed_result
Nc1nonc1-n1nnc(C(=O)N/N=C/c2ccccn2)c1-c1ccccc1	-5
CCOC(=O)c1nnsc1NC(C)=O	-13
Cc1nnc(SCC2=C(C(=O)O)N3C(=O)C(NC(=O)Cn4nc(C(F)F)cc4C)C3SC2)s1 (stereo not given)	-5
Cc1cccc(NC(=S)NC(=O)c2ccco2)c1C	52
COc1ccc(OC)c(NC(=O)C(=S)NC2CCCCC2)c1	-2
CCOC(=O)Cc1csc(NC(=S)NC(=O)c2ccccc2C)n1	3
CSc1nc(=S)cc(C)[nH]1	5
COc1ccc2nc(N3CCCCC3)c(/C=C3\SC(=S)NC3=O)cc2c1	3
Brc1ccc(-c2csc(N3CCCCCC3)n2)cc1	-3
O=C(Nc1ccccc1)O/N=C/c1ccncc1	-7
NC(=O)CSc1nc2ccccc2c(=O)n1CCc1ccccc1	-8
O=[N+]([O-])c1cccnc1Sc1n[nH]c(-c2ccc(Cl)cc2)n1	-14
COc1ccc(OC)c(NC(=O)COC(=O)c2ccc(-n3cnnn3)cc2)c1	-10
Cc1c(N2C(=O)/C(=C\c3ccccc3O)SC2=S)c(=O)n(-c2ccccc2)n1C	14
O=C(CSc1nnc(-c2ccncc2)o1)c1cccc([N+](=O)[O-])c1	-10
CCOC(=O)c1c(SCC(=O)Nc2nc(C)cs2)nc(=O)[nH]c1C	-16
S=C(NCc1ccco1)N1CCN(c2nc(-c3ccccc3)cs2)CC1	-13
O=C(O)COc1ccccc1/C=C1\SC(=S)N(NC(=O)c2ccccc2O)C1=O	-11
O=c1cc(O)c2sc(Nc3ccc(F)c(Cl)c3)nc2[nH]1	-15
O=C1c2ccccc2C(=O)N1Cc1nc2ccccc2c(=O)n1CCCn1ccnc1	-25
CCOC(=O)N1CCN(C(=O)c2ccc(Cl)c(S(=O)(=O)Nc3ccccc3)c2)CC1	5
Cc1cccc(N2C(=O)C(O)=C(C(=O)c3cccs3)C2c2cccc(Oc3ccccc3)c2)n1 (stereo not given)	-12
O=C(NC(=S)Nc1ncc(Br)cc1Br)c1ccccc1	11
O=C1C(=O)N(CCN2CCOCC2)C(c2cccnc2)/C1=C(/O)c1ccc(Cl)cc1 (stereo not given)	-8
Cc1cc(S(=O)(=O)Nc2ccc(C(=O)N3CCN(C(=O)c4ccco4)CC3)cc2)ccc1F	-13
COc1ccc(NC(=O)COC(=O)c2c(C)noc2C)c(OC)c1	-2
O=C1CC(N2CCN(c3ccccc3Cl)CC2)C(=O)N1c1ccc(F)cc1 (stereo not given)	-10
Cc1cc2c(cc(C(=O)OC(C(=O)NCc3ccco3)C(C)C)n2C)o1 (stereo not given)	2
CCCCCOc1ccc(C2C(C(C)=O)=C(C)Nc3ncnn32)cc1OC (stereo not given)	-11
Cc1cccc(NC(=O)CCNC(=O)c2ccco2)c1C	-13
CC1(OC(=O)c2ccc(Cl)nc2)C(=O)C=C2C=C(c3ccc(C#N)cc3)OC=C2C1=O (stereo not given)	-3
N/C(=N\OS(=O)(=O)c1cccc([N+](=O)[O-])c1)c1ccncc1	1
O=C(c1ccc(Cl)c(S(=O)(=O)N2CCCC2)c1)N1CCN(c2ccccc2F)CC1	-1
CCOc1ccc(/C=C2/SC(=O)NC2=S)cc1	92
Fc1cccc(C2NN=C(c3ccccc3)S2)c1 (stereo not given)	-12
CCOC(=O)Cc1csc(NC(=S)NC(=O)c2ccc(Cl)cc2)n1	11
CN(c1cccc(NS(=O)(=O)c2cccc([N+](=O)[O-])c2)c1)S(C)(=O)=O	-19
Fc1cccc(/C=N/Nc2ccc3ccccc3n2)c1	-7
O=C(NC(=S)N1CCN(c2nc(-c3ccccc3)cs2)CC1)c1cncc(Br)c1	12
CCOC(=O)Cc1csc(NC(=S)NC(=O)C(C)(C)C)n1	2
COc1ccc(NC(=O)C(=O)NNC(=O)COc2ccc(Cl)cc2)c(OC)c1	30
C/C(N)=C(/C#N)C(=O)COC(=O)C1CCC(C(C)(C)C)CC1 (stereo not given)	-7
CCNC(=S)Nc1scc(-c2ccccc2)c1C(=O)OCC	5
CCOC(=O)c1c(-c2ccccc2)csc1NC(=S)NC	7
Cn1cc(/C=C2\SC(=O)NC2=S)c2ccccc21	-24
